Exercise: state measured pIC50 for each of the compounds provided.
# Target Or System: UniProt:P78536
# Sequence (P78536 215-824, species assumed): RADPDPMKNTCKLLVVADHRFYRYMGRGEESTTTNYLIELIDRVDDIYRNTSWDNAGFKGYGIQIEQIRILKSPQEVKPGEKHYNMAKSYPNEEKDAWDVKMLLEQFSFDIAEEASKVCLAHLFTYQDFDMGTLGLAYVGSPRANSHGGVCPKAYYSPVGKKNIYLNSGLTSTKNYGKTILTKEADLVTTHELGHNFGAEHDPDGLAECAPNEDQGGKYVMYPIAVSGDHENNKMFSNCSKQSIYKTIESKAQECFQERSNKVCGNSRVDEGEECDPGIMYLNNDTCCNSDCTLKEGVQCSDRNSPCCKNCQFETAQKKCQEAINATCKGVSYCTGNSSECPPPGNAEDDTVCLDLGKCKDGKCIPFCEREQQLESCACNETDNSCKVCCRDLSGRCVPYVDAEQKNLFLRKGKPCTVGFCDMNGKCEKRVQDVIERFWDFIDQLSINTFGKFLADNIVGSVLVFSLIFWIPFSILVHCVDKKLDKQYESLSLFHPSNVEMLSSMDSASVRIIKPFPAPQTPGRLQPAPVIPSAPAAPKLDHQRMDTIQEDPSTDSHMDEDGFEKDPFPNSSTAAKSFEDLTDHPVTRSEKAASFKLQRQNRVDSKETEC
# Assay Procedure: TACE inhibition (fluorescent peptidyl substrate)
# Assay type: biochemical
# Condition Notes: read-out: TACE IC50
Structures can show the parent of a compound that is named as a salt.
Answers are plain numbers, as −log10 of the molar value.

Hey, can you go through the list below and give me pIC50 for every item?
1. CC#CCOc1ccc(S(=O)(=O)N(C)[C@H](CSC)C(=O)NO)cc1
2. CC#CCOc1ccc(S(=O)(=O)NC(C)C(=O)NO)cc1 (stereo not drawn)
3. CC#CCOc1ccc(S(=O)(=O)N(C)C(C(=O)NO)c2ccc(OCCCNC(C)=O)cc2)cc1 (stereo not drawn)
4. CC#CCOc1ccc(S(=O)(=O)N2CCN(Cc3cccnc3)CC2C(=O)NO)cc1 (stereo not drawn)
5. CC#CCOc1ccc(S(=O)(=O)N(C)C(C(=O)NO)C(C)(C)SCCN2CCCC2C(=O)OC)cc1 (stereo not drawn)

Completion:
8.48
8.22
7.21
7.55
6.96

Hey, can you go through the list below and give me pIC50 for every item?
1. CC#CCOc1ccc(S(=O)(=O)N2CCN(C(=O)N3CCOCC3)CC2C(=O)NO)cc1 (stereo not drawn)
2. CC#CCOc1ccc(S(=O)(=O)N(Cc2cccnc2)C(C)C(=O)NO)cc1 (stereo not drawn) [Example 33, Hydrochloride]
3. CN(CC(=O)NO)S(=O)(=O)c1ccc(OCC#Cc2ccc(Cl)cc2)cc1
4. CC#CCOc1ccc(S(=O)(=O)N2CCCS(=O)(=O)C[C@@H]2C(=O)NO)cc1
5. CC#CCOc1ccc(S(=O)(=O)NC(C(=O)NO)c2ccc(OCCN3CCCC3)cc2)cc1 (stereo not drawn)
6. CC#CCOc1ccc(S(=O)(=O)N2CCCSC(C)(C)[C@@H]2C(=O)NO)cc1
7. CC#CCOc1ccc(S(=O)(=O)N2CCN(C(=O)c3ccccc3)CCC2C(=O)NO)cc1 (stereo not drawn)

Completion:
1: 7.46; 2: 8.30; 3: 5.96; 4: 7.55; 5: 7.62; 6: 6.95; 7: 8.00
